- Assay explanation: Thermal stability by thermogravimetric analysis (TG)
- Type: physicochemical
- Method: The test was conducted in the 25–1000 °C temperature range at a heating rate of 10 ° min^−1 under air (flow rate of 25 cm^−3min^−1) and nitrogen (flow rate of 10 cm^−3min^−1). The weight of the samples was 5–7 mg.
Please go through the items and note down their TTGonset (onset of the thermal degradation).
Give just the numeric value; °C need not be written.

The molecule listed as C=C(C)C1CCC2(C(=O)O)CCC3(C)C(CCC4C5(C)CCC(O)C(C)(C)C5CCC43C)C12.CCOC(=O)C(N)C(C)CC (stereo not shown) [[IleOEt][BA]] shows TTGonset (onset of the thermal degradation) equal to 127.5

The molecule listed as C=C(C)C1CCC2(C(=O)O)CCC3(C)C(CCC4C5(C)CCC(O)C(C)(C)C5CCC43C)C12.C=C(C)C1CCC2(C(=O)O)CCC3(C)C(CCC4C5(C)CCC(O)C(C)(C)C5CCC43C)C12.CCOC(=O)C(N)CCCCN (stereo not shown) [[LysOEt][BA]2] shows TTGonset (onset of the thermal degradation) equal to 157.7

The molecule listed as C=C(C)C1CCC2(C(=O)O)CCC3(C)C(CCC4C5(C)CCC(O)C(C)(C)C5CCC43C)C12.CCOC(=O)C1CCCN1 (stereo not shown) [[ProOEt][BA]] shows TTGonset (onset of the thermal degradation) equal to 121.6

The molecule listed as C=C(C)C1CCC2(C(=O)O)CCC3(C)C(CCC4C5(C)CCC(O)C(C)(C)C5CCC43C)C12.CCOC(=O)C(N)CCCCN (stereo not shown) [[LysOEt][BA]] shows TTGonset (onset of the thermal degradation) equal to 144.0

The molecule listed as C=C(C)C1CCC2(C(=O)O)CCC3(C)C(CCC4C5(C)CCC(O)C(C)(C)C5CCC43C)C12.CCOC(=O)C(N)C(C)C (stereo not shown) [[ValOEt][BA]] shows TTGonset (onset of the thermal degradation) equal to 116.8

The molecule listed as C=C(C)C1CCC2(C(=O)O)CCC3(C)C(CCC4C5(C)CCC(O)C(C)(C)C5CCC43C)C12.CCOC(=O)C(N)Cc1ccccc1 (stereo not shown) [[PheOEt][BA]] shows TTGonset (onset of the thermal degradation) equal to 133.9

The molecule listed as C=C(C)C1CCC2(C(=O)O)CCC3(C)C(CCC4C5(C)CCC(O)C(C)(C)C5CCC43C)C12.CCOC(=O)CC(N)C(=O)OCC (stereo not shown) [[Asp(OEt)2][BA]] shows TTGonset (onset of the thermal degradation) equal to 119.8
